- Method: in vivo
- Assay setup: dissected bees N = 6, day 5; ± SD
Property measured: Bee without gut (ng/bee)
Just the number in ng/bee, nothing appended.

Reference set, count: 5
• N#C[C@H](O[C@@H]1O[C@H](CO[C@@H]2O[C@H](CO)[C@@H](O)[C@H](O)[C@H]2O)[C@@H](O)[C@H](O)[C@H]1O)c1ccccc1 = 833
• CN1[C@@H]2CC[C@H]1C[C@@H](OC(=O)C(CO)c1ccccc1)C2 (stereo partly drawn) [atropine, Atropine, reference compound] = 89
• CC(C)[C@]12O[C@H]1[C@@H]1O[C@]13[C@]1(O[C@H]1C[C@H]1C4=C(CC[C@@]13C)C(=O)OC4)[C@@H]2O [triptolide, Triptolide] = 3.1
• CCN1C[C@]2(COC(=O)c3ccccc3N3C(=O)C[C@H](C)C3=O)CC[C@H](OC)[C@@]34[C@@H]5C[C@H]6[C@H](OC)[C@@H]5[C@](O)(C[C@@H]6OC)[C@@](O)([C@@H](OC)[C@H]23)[C@@H]14 = 0.2
• C=C[C@]12CN(C)[C@@H]3[C@H]4CO[C@H](C[C@H]41)[C@]1(C(=O)Nc4ccccc41)[C@@H]32 = 461

# lookup: Bee without gut (ng/bee) of C/C=C1/C[C@@H](C)[C@@](C)(O)C(=O)OC/C2=C/CN(C)CC[C@@H](OC1=O)C2=O
7.0
